Hey, just so you know, these numbers are from patent US11254652B2.

# run.description: Solubility in water and simulated fluids at 37° C. (slurry, HPLC; XRPD of residual solid)
# Format: physicochemical
# applied.conditions: water, 37 °C, thermodynamic from solid, slurry time 1 hr, values based on hemi-sulfate sesqui-hydrate salt
readout: solubility at 1 h

{"columns": ["compound", "assay.value"],
 "data": [
  ["O=C(c1ccc(NS(=O)(=O)c2cccc3cccnc23)cc1)N1CCN(CC2CC2)CC1 [Form A, hemisulfate sesquihydrate]", "3050 µg/mL"]
]}

###

# run.description: Solubility measurements by gravimetric method in solvents at 23° C. and 50° C.
# Assay type: physicochemical
# applied.conditions: IPA:DMSO:water (80:18:2), 23 °C, organic solvent or mixture, thermodynamic from solid, IPA:DMSO:water (80:18:2), 23° C.; read-out: Solubility

{"columns": ["molecule", "solubility at 2 days (µg/mL)"],
 "data": [
  ["O=C(c1ccc(NS(=O)(=O)c2cccc3cccnc23)cc1)N1CCN(CC2CC2)CC1 [Form A, hemisulfate sesquihydrate]", 1000]
]}
